- Target desc: Pim3 kinase (Homo sapiens, UniProt Q86V86)
- Assay name: Pim3 AlphaScreen assay (high ATP)
Property measured: IC50
Hi, when you answer, please include the unit after the number. Thanks!

Exercise: For Pim3 kinase (Homo sapiens, UniProt Q86V86), give IC50 of the listed molecule: "C[C@H]1C[C@@H](c2ccncc2NC(=O)c2nc(-c3nc(Cl)c(C#N)cc3F)ccc2N)C[C@@H](O)[C@]1(C)O"
Solution: 5090 nM

Exercise: Using Pim3 kinase (Homo sapiens, UniProt Q86V86) as the test system, report measured IC50 of "C[C@H]1C[C@@H](c2ccncc2NC(=O)c2nc(-c3ccc(F)c(F)c3)ccc2N)C[C@@H](O)[C@]1(C)O" .
Solution: 1710 nM

Exercise: Find the measured IC50 of "C[C@H]1C[C@@H](c2ccncc2NC(=O)c2ccc(F)c(-c3c(F)cccc3F)n2)C[C@@H](N)[C@]1(C)O" with Pim3 kinase (Homo sapiens, UniProt Q86V86) as test system.
Solution: 0.99 nM

Exercise: Fill: IC50 (Pim3 kinase (Homo sapiens, UniProt Q86V86)) for this molecule "C[C@H]1C[C@@H](c2ccncc2NC(=O)c2nc(-c3c(F)cc(C(C)(C)O)cc3F)c(F)cc2N)C[C@@H](O)[C@]1(C)O"
Solution: 8.24 nM

Exercise: Using Pim3 kinase (Homo sapiens, UniProt Q86V86) as the test system, report measured IC50 of "C[C@H]1C[C@@H](c2ccncc2NC(=O)c2ccc(F)c(-c3c(F)cccc3F)n2)C[C@@H](O)[C@@]1(O)CF" .
Solution: 22.8 nM

* * *

- Target desc: Pim2 kinase (Homo sapiens, UniProt Q9P1W9)
- Sequence (Q9P1W9 whole entry): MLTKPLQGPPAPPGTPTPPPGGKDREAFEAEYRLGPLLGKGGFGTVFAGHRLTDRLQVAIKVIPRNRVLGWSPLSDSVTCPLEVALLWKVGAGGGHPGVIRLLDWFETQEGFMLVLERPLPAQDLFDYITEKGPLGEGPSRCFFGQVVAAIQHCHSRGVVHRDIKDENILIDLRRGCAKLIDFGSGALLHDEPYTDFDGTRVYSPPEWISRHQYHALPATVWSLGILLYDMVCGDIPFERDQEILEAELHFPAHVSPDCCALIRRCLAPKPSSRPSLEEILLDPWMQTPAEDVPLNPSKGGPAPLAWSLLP
- Assay name: Pim2 AlphaScreen assay (high ATP)
Property measured: IC50 (nM)
Write the value in nM as a bare number.

Please review the following examples before continuing.
>  <Structure string>
C[C@H]1C[C@@H](c2ccncc2NC(=O)c2ccc(F)c(-c3c(F)cc(OCC(F)(F)F)cc3F)n2)C[C@@H](N)[C@]1(C)O

>  <IC50 [nM]>
3.57

$$$$
>  <Structure string>
C[C@H]1C[C@@H](c2ccncc2NC(=O)c2ccc(F)c(-c3c(F)cc(N4CCOCC4)cc3F)n2)C[C@@H](O)[C@]1(C)O

>  <IC50 [nM]>
138

$$$$

Exercise: Report IC50, nothing else, for this molecule: "C[C@@H]1C[C@H](c2ccncc2NC(=O)c2ccc(F)c(-c3c(F)cc(S(C)(=O)=O)cc3F)n2)C[C@H](O)[C@@]1(C)O"
Solution: 7110

* * *

// values below are reported IC50
- Target desc: Pim3 kinase (Homo sapiens)
- Assay name: KinaseGlo Pim3 ATP depletion assay
- Type: biochemical
- Assay conditions: Table 4, 40 μM ATP, 100 μM BAD peptide
State the answer as a number, implicitly in nM.

>  <Compound>
C[C@H]1C[C@@H](c2ccncc2NC(=O)c2ccc(F)c(-c3c(F)ccc(N)c3F)n2)C[C@@H](O)[C@]1(C)O [Example 56]

>  <Units>
nM

>  <IC50>
2.9

$$$$
>  <Compound>
C[C@H]1C[C@@H](c2ccncc2NC(=O)c2nc(-c3nccs3)ccc2N)C[C@@H](O)[C@]1(C)O [Example 52]

>  <Units>
nM

>  <IC50>
3.6

$$$$
>  <Compound>
CC[C@]1(O)[C@H](C)C[C@H](c2ccncc2NC(=O)c2nc(-c3c(F)cccc3F)ncc2N)C[C@@H]1O [Example 35]

>  <Units>
nM

>  <IC50>
150

$$$$
>  <Compound>
CC[C@]1(O)[C@H](O)C[C@H](c2ccncc2NC(=O)c2nc(-c3c(F)cccc3F)ccc2N)C[C@@H]1C [Example 32]

>  <Units>
nM

>  <IC50>
1.4

$$$$
>  <Compound>
C[C@H]1C[C@@H](c2ccncc2NC(=O)c2ccc(F)c(-c3c(F)cccc3F)n2)C[C@@H](O)C1(O)CO (stereo in doubt) [Example 59]

>  <Units>
nM

>  <IC50>
1.3

$$$$

Exercise: State, in one line, measured IC50 of CC(=O)OC[C@]1(O)[C@H](C)C[C@H](c2ccncc2NC(=O)c2ccc(F)c(-c3c(F)cccc3F)n2)C[C@@H]1O [Example 44]
Solution: 29.3

* * *

- Target desc: Pim2 kinase (Homo sapiens, UniProt Q9P1W9)
- Assay name: Pim2 AlphaScreen assay (high ATP)
Property measured: pIC50
Entry type: numeric. Quantity: pIC50, the -log10 of concentration in molar units.

Consider the following illustrative entries.
>  <Structure string>
C[C@H]1C[C@@H](c2ccncc2NC(=O)c2nc(-c3ccc(F)cn3)ccc2N)C[C@@H](O)[C@]1(C)O

>  <pIC50>
4.85

$$$$
>  <Structure string>
C[C@H]1C[C@@H](c2ccncc2NC(=O)c2nc(-c3c(F)cccc3F)c(F)cc2N)C[C@@H](O)[C@@]1(O)CF

>  <pIC50>
7.54

$$$$
>  <Structure string>
Cc1cc(F)c(-c2nc(C(=O)Nc3cnccc3[C@H]3C[C@@H](C)[C@](C)(O)[C@@H](N)C3)ccc2F)c(F)c1

>  <pIC50>
6.11

$$$$

Exercise: Look up and state reported pIC50 for "C[C@H]1C[C@@H](c2ccncc2NC(=O)c2ccc(F)c(-c3c(F)cc(C4CCOCC4)cc3F)n2)C[C@@H](N)[C@]1(C)O"
Solution: 8.83

* * *

Entries and their pIC50 values follow.
- Target desc: Pim1 kinase (Homo sapiens, UniProt P11309)
- Sequence (P11309 whole entry): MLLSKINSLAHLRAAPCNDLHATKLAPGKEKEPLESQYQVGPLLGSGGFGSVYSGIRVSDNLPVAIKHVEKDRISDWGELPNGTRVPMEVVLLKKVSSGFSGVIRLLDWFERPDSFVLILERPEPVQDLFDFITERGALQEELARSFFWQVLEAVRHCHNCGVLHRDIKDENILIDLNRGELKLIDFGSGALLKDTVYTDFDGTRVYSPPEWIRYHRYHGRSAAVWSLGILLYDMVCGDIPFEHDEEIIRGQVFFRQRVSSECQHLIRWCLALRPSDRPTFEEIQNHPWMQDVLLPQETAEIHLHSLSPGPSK
- Assay name: Pim1 AlphaScreen assay (high ATP)
Quick note: pIC50 means taking -log10 of the concentration in moles per liter.

>  <Molecule>
C[C@H]1C[C@@H](c2ccncc2NC(=O)c2nc(-c3c(F)cccc3F)c(F)cc2N)C[C@@H](N)[C@]1(C)O

>  <Target desc>
Pim1 kinase (Homo sapiens, UniProt P11309)

>  <pIC50>
10.40

$$$$
>  <Molecule>
C[C@H]1C[C@@H](c2ccncc2NC(=O)c2nc(-c3cccc(F)n3)c(F)cc2N)C[C@@H](O)[C@]1(C)O

>  <Target desc>
Pim1 kinase (Homo sapiens, UniProt P11309)

>  <pIC50>
7.40

$$$$
>  <Molecule>
C[C@H]1C[C@@H](c2ccncc2NC(=O)c2ccc(F)c(-c3c(F)cc(COC4CCOCC4)cc3F)n2)C[C@@H](N)[C@]1(C)O

>  <Target desc>
Pim1 kinase (Homo sapiens, UniProt P11309)

>  <pIC50>
10.05

$$$$
>  <Molecule>
CSc1cc(F)c(-c2nc(C(=O)Nc3cnccc3[C@H]3C[C@@H](N)[C@](C)(O)[C@@H](C)C3)ccc2F)c(F)c1

>  <Target desc>
Pim1 kinase (Homo sapiens, UniProt P11309)

>  <pIC50>
10.10

$$$$
>  <Molecule>
C[C@H]1C[C@@H](c2ccncc2NC(=O)c2ccc(F)c(-c3c(F)cc(N4CCOCC4)cc3F)n2)C[C@@H](O)[C@]1(C)O

>  <Target desc>
Pim1 kinase (Homo sapiens, UniProt P11309)

>  <pIC50>
9.64

$$$$
>  <Molecule>
C[C@H]1C[C@@H](c2ccncc2NC(=O)c2ccc(F)c(-c3c(F)cc(C4(O)CCCC4)cc3F)n2)C[C@@H](O)[C@]1(C)O

>  <Target desc>
Pim1 kinase (Homo sapiens, UniProt P11309)

>  <pIC50>
9.82

$$$$

Exercise: Please give the documented pIC50 of "C[C@@H]1C[C@H](c2ccncc2NC(=O)c2nc(-c3c(F)cccc3F)ccc2N)C[C@H](O)[C@]1(O)CF"
Solution: 7.55

Exercise: Report pIC50 for "C[C@H]1C[C@@H](c2ccncc2NC(=O)c2nc(-c3c(F)cc(C4(F)CCOCC4)cc3F)sc2N)C[C@@H](N)[C@]1(C)O"
Solution: 11.00

Exercise: Give the reported pIC50 for this molecule. "C[C@H]1C[C@@H](c2ccncc2NC(=O)c2ccc(F)c(-c3c(F)cc(OCC(F)(F)F)cc3F)n2)C[C@@H](N)[C@]1(C)O"
Solution: 10.15

Exercise: Consider the molecule C[C@H]1C[C@@H](c2ccncc2NC(=O)c2nc(-c3ncccc3F)c(F)cc2N)C[C@@H](O)C1(C)O (stereo in doubt) and give its recorded pIC50.
Solution: 8.01

Exercise: Note pIC50 for the molecule shown: "COCCOc1cc(F)c(-c2nc(C(=O)Nc3cnccc3[C@H]3C[C@@H](N)[C@](C)(O)[C@@H](C)C3)ccc2F)c(F)c1"
Solution: 10.10

Exercise: Give the measured pIC50 for "C[C@@H]1C[C@H](c2ccncc2NC(=O)c2csc(-c3c(F)cccc3F)n2)C[C@H](N)[C@@]1(C)O"
Solution: 6.95

Exercise: Hello, please tell me recorded pIC50 for this one: "C[C@H]1C[C@@H](c2ccncc2NC(=O)c2nc(-c3c(F)cc(C(C)(C)O)cc3F)c(F)cc2N)C[C@@H](O)[C@]1(C)O"
Solution: 9.62
